target: T1, pKal catalytic domain Mutant 2 (human, UniProt P03952 391-638, limits assumed); experiment: apparent Ki (Ki,app), enzyme inhibition, pKal catalytic domain Mutant 2
T1 construct: domain: catalytic domain; Expressed in Pichia pastoris, purified by IMAC; not shown: His tag fusion
T1 sequence (P03952 other isoform, or with tags, fused parts or gaps mutant limits assumed): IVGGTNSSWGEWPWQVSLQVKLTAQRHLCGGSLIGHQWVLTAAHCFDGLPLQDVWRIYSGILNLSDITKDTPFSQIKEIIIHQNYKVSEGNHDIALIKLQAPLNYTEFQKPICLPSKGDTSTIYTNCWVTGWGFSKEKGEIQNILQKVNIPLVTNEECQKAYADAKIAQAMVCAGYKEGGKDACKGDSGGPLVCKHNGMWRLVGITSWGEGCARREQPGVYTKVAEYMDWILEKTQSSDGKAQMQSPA
Property label: pKi
A value of pKi is the negative decimal logarithm of a concentration given in moles per litre.

input: Entry under review: X115-D01 (antibody, V domains shown, also called 559A-X115-D01; 559A-X0115-D01) VH: EVQLLESGGGLVQPGGSLRLSCAASGFTFSIYSMHWVRQAPGKGLEWVSSIYPSRGMTWYADSVKGRFTISRDNSKNTLYLQMNSLRAEDTAVYYCAYRRTGIPRRDAFDIWGQGTMVTVSS VL: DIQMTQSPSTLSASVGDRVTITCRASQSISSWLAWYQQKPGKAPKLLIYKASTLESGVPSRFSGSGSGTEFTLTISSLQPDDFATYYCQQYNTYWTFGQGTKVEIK . Reported pKi?
output: 8.60
